assay: H69AR cell proliferation blockers – human, duplicate replicates, primary screen (AID 580); settings: H69AR lung tumor cells viability, ATP luminescence, 72 h; at 10 µM; active compounds read low;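 also: 100% = mean luminescence of untreated wells and 0% = no signal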
Measurement type: viability (%)

                                    compound  measurement_type  unit_label  observed_value
 0  COc1ccc(C)cc1NC(=O)C1CCN(S(=O)(=O)c2cccc3cccnc23)CC1         viability           %            90.9
 1  CCCNC(=O)CS(=O)(=O)Cc1nc(-c2cccc(OC)c2)oc1C         viability           %            87.7
 2  CCSc1nc2c(c(=O)[nH]1)C(c1cccnc1)C(C(=O)OC(C)C)=C(C)N2 (stereo unspecified)         viability           %            97.4
 3  CCc1ccc(C2CC(c3cccc(OC)c3)n3nc(N)nc3N2)cc1 (stereo unspecified)         viability           %             105
 4       Cc1sc2nc(SCC(=O)NCCO)n(C)c(=O)c2c1C         viability           %              88
 5            Cc1ccc(C)n1-c1ccc(N2CCOCC2)cc1         viability           %            77.9
 6     O=S(=O)(c1ccc(F)cc1)N1CCC(N2CCCC2)CC1         viability           %            91.2
 7  CC12CN3CC(C)(CN(C1)C3c1ccc(Cl)cc1Cl)C2=O (stereo unspecified)         viability           %            80.9
 8  O=C(O)c1ccc2c(c1)C(=O)N(c1ccc(Cl)cn1)C2=O         viability           %            87.2
 9  CCN(CC)S(=O)(=O)c1ccc2c(c1)nc(SCn1nnc3ccccc3c1=O)n2CC         viability           %            83.2
10  O=C(c1cnc2n(c1=O)CCS2)N(C1CCCCC1)C1CCCCC1         viability           %             102
